Ref: PubChem BioAssay (NCI)

Test system: CAKI-1 renal
Assay: NCI-60 one-dose screen, 48 h
Conditions: 10 µM unless noted
Method: Growth inhibition of the CAKI-1 human tumor cell line is measured as a screen for anti-cancer activity. Cells are grown in 96 well plates and exposed to the test compound for 48 hours. Compounds are tested at a single concentration, which is 10^-5 M for most compounds. The reported endpoint is percent growth (GI% or GIPRCNT), where numbers from 0 - 100% represent growth inhibition, and numbers from -100% - 0 represent cell death. For example, a value of 40 represents 60% growth inhibition. […]
About 83,000 compounds went through this panel and 20% of them were active in at least one assay; those are over-represented in the sample as a whole. Activity calls are given as the source filed them. The calls were made as follows: active = growth percent below 10; inactive = the rest.
Outcome codes: TRUE (active), FALSE (inactive)

# COMPOUND, LABEL
records = [
    ("CC1=NN(C2=NC(=O)C(CC(=O)Nc3ccccc3C(F)(F)F)S2)C(c2ccc(N(C)C)cc2)C1 (stereo not drawn)", "FALSE"),
    ("Cc1[nH]nc2ccc3nc(-c4cn[nH]c4C(F)(F)F)c4c(c3c12)CCCC4", "TRUE"),
    ("CCCCCCCOc1ccc(S(=O)(=O)Nc2ccc(C)c(F)c2C(=O)O)cc1", "FALSE"),
]

###

Reported growth is given for each of the following compounds.
system: SK-MEL-2 melanoma; assay: NCI-60 one-dose screen, 48 h (100 = growth as untreated, 0 = no growth, -100 = all killed); settings: 10 µM unless noted
The panel holds about 83,000 compounds, 20% with a hit somewhere; the sample as a whole holds those more often.
MEASUREMENT_NAME: growth (%)

# CHEMICAL_SMILES, UNITS_LABEL, READOUT_VALUE
data = [
    ("C/C(=N\\Nc1ccc(C(=O)O)cc1)c1cnn(-c2cc(=O)[nH]c3ccc(C)cc23)c1C", "%", 106),
    ("CC(=O)c1c2c(c3ccc4c5ccccc5ccc4n13)C(=O)c1ccccc1C2=O", "%", 93.3),
    ("NC(=O)c1ccc(-c2ccc3ncnc(N4CCc5cc(F)c(Cl)cc54)c3c2)cn1", "%", 95.2),
    ("Cn1cc(-c2cc(N)n3nc(-c4c[nH]c5ccc(F)cc45)cc3n2)c2cccnc21", "%", 86.8),
    ("Cc1nn(-c2ccccc2)c2nc(C)n(C(=O)N/N=C/c3ccccc3)c(=O)c12", "%", 105),
    ("CC(C)(C)C(=O)c1c2c(c3ccc4c5ccccc5ccc4n13)C(=O)c1ccccc1C2=O", "%", 104),
]

###

test system: NCI-H23 lung; test: NCI-60 one-dose screen, 48 h; details: 10 µM unless noted
Compounds without any hit were thinned out: in the full panel of roughly 83,000, 20% have a hit. Calls of active or inactive are those of the source. The calls were made as follows: active = growth percent below 10; inactive = the rest.
Labels: active, inactive

# MOLECULE, LABEL
rows = [
    ("COc1ccc(N=Nc2c(N)nn3c(-c4ccc(OC)c(OC)c4)ccnc23)cc1", "inactive"),
    ("CC(C)C[C@H](NC(=O)[C@@H]1CCCCCCCCCCC(=O)N[C@@H](CC(=O)N2CCC[C@@H]2C2CCCC2)C(=O)N1)B(O)O", "active"),
    ("COc1ccc(NC(=O)Cn2c(/C=C/c3cccc(OC)c3)nc3ccccc3c2=O)cc1", "inactive"),
    ("Oc1ccc(Cl)c(Nc2ncnc3c2cnn3CC(Cl)c2ccc(Br)cc2)c1 (stereo not given)", "inactive"),
    ("CCc1ccccc1NC(=O)N/C(N)=N/c1nc2ccccc2s1", "active"),
    ("Cc1cc(C(NC(=O)C2CC3(CC(Nc4cccc5c4C(=O)N(C4CCC(=O)NC4=O)C5=O)C3)C2)c2ccc3c(c2)OC(F)(F)O3)c(O)c2ncccc12 (stereo not given)", "active"),
    ("O=C(N=Nc1c(O)[nH]c2ccc(Br)cc12)c1ccc2nc(-c3ccc(Cl)cc3)[nH]c2c1", "active"),
    ("COc1ccc2c(c1)C(Sc1ccc(Br)cc1)c1c(nc(N)c(C#N)c1N)O2 (stereo not given)", "inactive"),
    ("Cc1ccc(Cl)cc1NC(=O)Nc1nc2ccc([N+](=O)[O-])cc2s1", "active"),
    ("CCCCNc1ccc2c3c(cccc13)C(=O)N(c1cccc(-c3nn(-c4ccccc4)cc3-c3nc4ccccc4s3)c1)C2=O", "inactive"),
]
